Assay: Partition coefficient, log P of the compound
Assay type: physicochemical
Conditions: octanol/water
Measure: logP

As a guide, the following entries are already answered.
>>> observed_value("O=C(NC/C=C/CN1CCN(c2ccccc2OCCF)CC1)c1ccc(CCF)cc1")
3.61
>>> observed_value("O=C(NCCCCN1CCN(c2ccccc2OCCF)CC1)c1ccc(-c2ccsc2)cc1")
4.67
>>> observed_value("COc1ccccc1N1CCN(C/C=C/CNC(=O)c2ccc(OCCF)cc2)CC1")
3.55

1. COc1ccccc1N1CCN(CCCCNC(=O)c2ccc(OCCOCCOCCF)cc2)CC1
2. O=C(NC/C=C/CN1CCN(c2ccccc2OCCF)CC1)c1ccc(-c2ccsc2)cc1
Task: Problem: Given the entries 1 and 2 , determine which has the lower reported logP. Use the label to indicate which entry you chose.
Output: 1
(1: 2.72, 2: 4.74)
